This collection of values is drawn from patent US20240083917A1.

Dear all, this message contains IC50 results, target or system DNA-PK (Homo sapiens (Human)).
# unit: nM | format: bare number

• Cc1cc2ncnn2cc1Nc1ncc2c(n1)N1C(=NCC13CCC(O)CC3)N2C (single isomer, unassigned) [Compound 7-2] = 0.72
• Cc1cc2ncnn2cc1Nc1ncc2c(n1)N1C(=NCC13CCC(O)CC3)N2C (single isomer, unassigned) [Compound 7-1] = 0.62
• Cc1cc2ncnn2cc1Nc1ncc2c(n1)N1C(=NCC13CCCOCC3)N2C (centres unmarked) = 1.6
• Cc1cc2ncnn2cc1Nc1ncc2nc3n(c2n1)C1(CCOCC1)CN3C = 22
• COC1(C)CCC2(CC1)CN=C1N(C)c3cnc(Nc4cn5ncnc5cc4C)nc3N12 (centres unmarked) = 1.37
• Cc1cc2ncnn2cc1Nc1ncc2c(n1)N1C(=NCC13CCS(=O)(=O)CC3)N2C = 21

I'm curious: which IC50 was measured for Cc1cc2ncnn2cc1Nc1ncc2c(n1)N1C(=NCC13CCCCC3)N2C tested on DNA-PK (Homo sapiens (Human))?
0.8

Write down the reported IC50 of COC1CCC2(CC1)CN=C1N(C)c3cnc(Nc4cn5ncnc5cc4C)nc3N12 (single isomer, unassigned) [Compound 16-1] , test system: DNA-PK (Homo sapiens (Human)).
3
